Entry source: ChEMBL document CHEMBL4765483

For each record, write down the corresponding inhibition.
Target: Adenosine receptor A1 (Homo sapiens) (UniProt P30542)
Sequence (whole entry): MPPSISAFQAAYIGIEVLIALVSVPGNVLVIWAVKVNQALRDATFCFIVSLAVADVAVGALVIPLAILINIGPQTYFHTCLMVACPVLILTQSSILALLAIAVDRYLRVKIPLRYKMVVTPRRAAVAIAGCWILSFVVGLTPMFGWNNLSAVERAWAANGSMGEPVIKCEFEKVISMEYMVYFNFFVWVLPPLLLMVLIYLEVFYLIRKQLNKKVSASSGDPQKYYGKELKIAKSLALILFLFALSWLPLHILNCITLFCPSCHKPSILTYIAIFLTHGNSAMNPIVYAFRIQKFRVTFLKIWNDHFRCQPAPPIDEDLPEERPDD
Experiment: Displacement of [3H]DPCPX from human adenosine A1 receptor expressed in CHO cell membranes at 1 uM incubated for 60 mins by scintillation counting method
Conditions: Cell membrane
Answers are plain numbers, in %.

Guide cases for inhibition, answers given:
>  <COMPOUND>
CC1=C(C(=O)OCC2CC2)C(c2ccsc2)NC(=O)N1 (racemic)

>  <UNITS_TEXT>
%

>  <RECORDED_VALUE>
39

$$$$
>  <COMPOUND>
CC1=C(C(=O)OC2CCCCC2)C(c2ccoc2)NC(=O)N1 (racemic)

>  <UNITS_TEXT>
%

>  <RECORDED_VALUE>
15

$$$$

Give one value of inhibition per listed compound.
1. CC1=C(C(=O)OC(C)(C)C)C(c2cccs2)NC(=O)N1 (racemic)
2. CC1=C(C(=O)OCc2ccccc2)C(c2ccsc2)NC(=O)N1 (racemic)
3. CCNC(=O)C1=C(C)NC(=O)NC1c1cccs1 (racemic)
4. CC1=C(c2ncc(C)o2)C(c2ccsc2)NC(=O)N1 (racemic)
5. CCCOC(=O)C1=C(C)N(C)C(=O)NC1c1ccoc1 (racemic)
6. CC1=C(C(=O)OCC2CCC2)C(c2ccoc2)NC(=O)N1 (racemic)
7. COC(=O)C1=C(C)NC(=O)NC1c1ccsc1 (racemic)
8. CC1=C(C(=O)OCC(C)C)C(c2ccsc2)NC(=O)N1C (racemic)

(A)
1: 26; 2: 57; 3: 1; 4: 34; 5: 1; 6: 46; 7: 7; 8: 8

* * *

Target: Adenosine receptor A1 (Homo sapiens) (UniProt P30542)
Sequence (whole entry): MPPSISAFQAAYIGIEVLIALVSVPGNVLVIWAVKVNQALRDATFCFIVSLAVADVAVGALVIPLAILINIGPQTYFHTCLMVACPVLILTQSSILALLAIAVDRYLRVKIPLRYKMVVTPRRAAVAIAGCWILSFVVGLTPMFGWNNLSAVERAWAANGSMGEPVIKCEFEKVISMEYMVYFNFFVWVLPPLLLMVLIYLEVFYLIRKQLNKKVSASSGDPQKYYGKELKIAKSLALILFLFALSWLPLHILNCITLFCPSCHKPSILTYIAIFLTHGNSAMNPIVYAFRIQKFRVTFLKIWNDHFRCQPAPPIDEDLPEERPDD
Assay: Displacement of [3H]DPCPX from human adenosine A1 receptor expressed in CHO cell membranes at 1 uM incubated for 60 mins by scintillation counting method
Conditions: Cell membrane
ENDPOINT: inhibition (%)
Answers are plain numbers, in %.

Guide cases for inhibition, answers given:
>  <MOLECULE>
CC1=C(C(=O)OCc2ccccc2)C(c2cccs2)NC(=S)N1 (racemic)

>  <UNITS_TEXT>
%

>  <inhibition>
34

$$$$
>  <MOLECULE>
CCC(C)OC(=O)C1=C(C)NC(=O)NC1c1ccsc1 (racemic)

>  <UNITS_TEXT>
%

>  <inhibition>
5

$$$$

Turning now to a further molecule:
(Q) # get_value(readout= inhibition, system= Adenosine receptor A1 (Homo sapiens) (UniProt P30542)) for CC1=C(C(=O)CC(C)C)C(c2ccsc2)NC(=O)N1 (racemic)
(A) 37
